molecular target: mouse NPY-Y5 receptors (mNPY-Y5) (Mus musculus, UniProt O70342); construct: The full-length cDNA which contains the mouse NPY-Y5 (mNPY-Y5) receptor coding was amplified from mouse brain cDNA; test: Radioligand competition binding (125I-PYY) on membranes of HEK293 cells expressing recombinant mouse NPY-Y5 receptor; conditions: displacement of 100 pM 125I-labeled PYY, 1 h at 22° C., read-out: NPY5 IC50
Sequence (O70342 whole entry): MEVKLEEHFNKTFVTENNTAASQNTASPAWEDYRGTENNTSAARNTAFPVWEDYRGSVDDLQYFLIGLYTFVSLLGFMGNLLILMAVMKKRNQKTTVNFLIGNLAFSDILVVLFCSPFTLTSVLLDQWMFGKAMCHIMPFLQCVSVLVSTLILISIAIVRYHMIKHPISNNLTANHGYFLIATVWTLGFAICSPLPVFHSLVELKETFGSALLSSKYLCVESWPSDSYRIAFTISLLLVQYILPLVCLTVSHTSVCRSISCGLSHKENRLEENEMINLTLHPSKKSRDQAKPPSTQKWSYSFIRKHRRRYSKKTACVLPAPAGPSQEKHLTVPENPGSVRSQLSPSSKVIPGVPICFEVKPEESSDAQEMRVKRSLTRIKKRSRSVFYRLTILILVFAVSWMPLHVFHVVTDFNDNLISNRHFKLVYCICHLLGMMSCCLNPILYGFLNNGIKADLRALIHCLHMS
measured.parameter: IC50 (µM)

| molecule | assayed.system | unit.string | IC50 |
| --- | --- | --- | --- |
| CCn1c2ccccc2c2cc(NC(=O)C3CC(=O)N(C4Cc5ccccc5C4)C3)ccc21 (racemic) | mouse NPY-Y5 receptors (mNPY-Y5) (Mus musculus, UniProt O70342) | µM | 0.032 |
| CCN(c1ccccc1)c1ccc(NC(=O)C2CC(=O)N(c3cc(C)ccc3C)C2)cc1 (racemic) | mouse NPY-Y5 receptors (mNPY-Y5) (Mus musculus, UniProt O70342) | µM | 0.017 |
| CCOC(=O)CN(c1ccccc1)c1ccc(NC(=O)C2CC(=O)N(c3cc(OC)ccc3C)C2)cc1 (racemic) | mouse NPY-Y5 receptors (mNPY-Y5) (Mus musculus, UniProt O70342) | µM | 0.046 |
| CCn1c2ccccc2c2cc(NC(=O)C3CC(=O)N(Cc4cccs4)C3)ccc21 (racemic) | mouse NPY-Y5 receptors (mNPY-Y5) (Mus musculus, UniProt O70342) | µM | 0.01 |
| Cc1ccc(C)c(N2CC(C(=O)Nc3ccc(N(C)c4ccccc4)cc3)CC2=O)c1 (racemic) | mouse NPY-Y5 receptors (mNPY-Y5) (Mus musculus, UniProt O70342) | µM | 0.026 |

A = CCN(c1ccccc1)c1ccc(NC(=O)C2CC(=O)N(C3Cc4ccccc4C3)C2)cc1 (racemic)
B = CCn1c2ccccc2c2cc(NC(=O)C3CC(=O)N(CCc4cccs4)C3)ccc21 (racemic)
Problem: Identify the item whose IC50 is the smaller number: A or B Select an item and report its label.
Solution: B

====

biological target: mouse NPY-Y5 receptors (mNPY-Y5) (Mus musculus); construct: The full-length cDNA which contains the mouse NPY-Y5 (mNPY-Y5) receptor coding was amplified from mouse brain cDNA; test: Radioligand competition binding (125I-PYY) on membranes of HEK293 cells expressing recombinant mouse NPY-Y5 receptor; conditions: displacement of 100 pM 125I-labeled PYY, 1 h at 22° C., read-out: NPY5 IC50
measured.parameter: IC50 (nM)

Look over these answered cases.
| molecule | IC50 / nM |
| --- | --- |
| CCn1c2ccccc2c2cc(NC(=O)C3CC(=O)N(Cc4ccc(OC)cc4OC)C3)ccc21 (racemic) | 20 |
| CCn1c2ccccc2c2cc(NC(=O)C3CC(=O)N(c4cccc(OC)c4)C3)ccc21 (racemic) | 20 |
| CCN(c1ccccc1)c1ccc(NC(=O)C2CC(=O)N(c3ccccc3C(C)C)C2)cc1 (racemic) | 23 |

I = CCn1c2ccccc2c2cc(NC(=O)C3CC(=O)N(c4ccccc4)C3)ccc21 (racemic)
II = CCN(c1ccccc1)c1ccc(NC(=O)C2CC(=O)N(c3cc(OC)ccc3C)C2)cc1 (racemic)
Problem: Identify the item whose IC50 is the smaller number: I or II Select an item and report its label.
Solution: I
